Origin of values: patent US11260100B2

System: MCF10A
Experiment: PD0332991 inhibitor treatment, proliferation by cell counting
Assay type: cell-based
Conditions: Homo sapiens, MCF-10A, 48 h post treatment, read-out: IC50 (concentration needed to inhibit proliferation by 50%)
QUANTITY_MEASURED: pIC50
# pIC50 = -log10(concentration in molar units)

pIC50 for CC(=O)c1c(C)c2cnc(Nc3ccc(N4CCNCC4)cn3)nc2n(C2CCCC2)c1=O is 6.96
